For each entry below, report its Kd value.
# target-under-test: T1, cynomolgus (Macaca fascicularis) ST2L extracellular domain with C-terminal His6 tag (Macaca fascicularis (cynomolgus), UniProt Q01638 19-321 (human entry))
# T1 construct: also called cyno ST2L-ECD; cynoST2L-ECD
# T1 chain: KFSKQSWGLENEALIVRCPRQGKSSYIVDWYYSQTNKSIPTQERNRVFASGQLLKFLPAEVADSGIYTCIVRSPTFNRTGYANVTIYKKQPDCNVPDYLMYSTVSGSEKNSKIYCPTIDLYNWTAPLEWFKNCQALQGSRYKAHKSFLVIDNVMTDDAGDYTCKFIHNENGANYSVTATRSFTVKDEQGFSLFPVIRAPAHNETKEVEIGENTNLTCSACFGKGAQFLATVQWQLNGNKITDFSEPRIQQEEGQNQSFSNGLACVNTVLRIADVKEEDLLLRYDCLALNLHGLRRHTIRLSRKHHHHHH
# procedure-details: SPR, mAb captured, ST2L-ECD in solution
Give just the numeric value; nM need not be written.

Input: # lookup: Kd of STLM215 (antibody, V domains shown, frameworks VH3-23 / Vk-L6) VH: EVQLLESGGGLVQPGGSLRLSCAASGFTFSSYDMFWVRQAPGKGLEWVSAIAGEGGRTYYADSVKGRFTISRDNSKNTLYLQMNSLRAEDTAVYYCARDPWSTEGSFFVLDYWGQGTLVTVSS VL: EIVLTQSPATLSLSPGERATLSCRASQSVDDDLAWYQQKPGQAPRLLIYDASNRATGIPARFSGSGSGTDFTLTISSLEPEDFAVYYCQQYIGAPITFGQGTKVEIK
Output: 0.01

Input: # lookup: Kd of STLM211 (antibody, V domains shown, frameworks VH3-23 / Vk-L6) VH: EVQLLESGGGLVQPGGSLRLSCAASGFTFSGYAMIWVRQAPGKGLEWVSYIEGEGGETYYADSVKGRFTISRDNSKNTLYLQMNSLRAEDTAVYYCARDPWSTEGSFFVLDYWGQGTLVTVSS VL: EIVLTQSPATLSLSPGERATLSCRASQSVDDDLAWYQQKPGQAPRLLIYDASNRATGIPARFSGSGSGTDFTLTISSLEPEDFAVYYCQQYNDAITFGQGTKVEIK
Output: 0.014

Input: # lookup: Kd of STLM232 (antibody, V domains shown, VH STLH201 + VL STLL272) VH: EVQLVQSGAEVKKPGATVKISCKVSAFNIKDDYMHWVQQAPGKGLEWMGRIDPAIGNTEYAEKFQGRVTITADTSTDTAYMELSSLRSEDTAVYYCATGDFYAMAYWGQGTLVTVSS VL: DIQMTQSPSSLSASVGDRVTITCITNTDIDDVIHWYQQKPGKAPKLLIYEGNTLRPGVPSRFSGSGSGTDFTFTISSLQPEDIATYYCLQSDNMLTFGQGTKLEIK
Output: 0.08

Input: # lookup: Kd of STLM219 (antibody, V domains shown, frameworks VH3-23 / Vk-L6) VH: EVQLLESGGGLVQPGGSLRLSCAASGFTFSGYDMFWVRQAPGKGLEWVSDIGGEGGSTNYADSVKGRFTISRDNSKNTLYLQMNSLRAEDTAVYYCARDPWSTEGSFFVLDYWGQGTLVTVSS VL: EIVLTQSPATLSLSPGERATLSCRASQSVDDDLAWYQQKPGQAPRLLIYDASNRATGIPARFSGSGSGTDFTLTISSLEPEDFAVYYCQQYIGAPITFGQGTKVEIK
Output: 0.022

Entry source: patent US20170066831A1
